- Assay text: label from the status in PepcDB records
Metric: protein production

Here is how some sequences turned out for protein production.
INSERT INTO assay_data (sequence_string, metric, assay_value) VALUES
  ('YLIKFDRIAVPMAEGRSSRRVLHIAFAFASAMGSEITAITVRDQAKDITWTNKITVVTNAYKEGLSQNIKVVPKILTSSDVKSALVEELNRHSYDIVIIASEKRSIITRITSGPVSNYVIKKSNIPTALV', 'protein production', 'failed'),
  ('METRYNLKSPAVKRLMKEAAELKDPTDHYHAQPLEDNLFEWHFTVRGPPDSDFDGGVYHGRIVLPPEYPMKPPSIILLTANGRFEVGKKICLSISGHHPETWQPSWSIRTALLAIIGFMPTKGEGAIGSLDYTPEERRALAKKSQDFCCEGCGSAMKDVLLPLKSGSDSSQADQEAKELARQISFKAEVNSSGKTISESDLNHSFSLTDLQDDIPTTFQGATASTSYGLQNSSAASFHQPTQPVAKNTSMSPRQRRAQQQSQRRLSTSPDVIQGHQPRDNHTDHGGSAVLIVILTLALAALIFRRIYLANEYIFDFEL', 'protein production', 'failed'),
  ('LEAVAPERPRCAYCSAEASKRCSRCQNEWYCCRECQVKHWEKHGKTC', 'protein production', 'not failed'),
  ('MVTVVVPAHNEDVVIAQTAKAILDMKYPRDKLEIILFADNCEDNTYQEMQSIKALPQYADRDLTLINRSGTGGKAGVLNDALKIAKGDYICVYDADAMPEKNALYFLVQKVMEDPERHVAAFGRNKTRNANQNFLTRCINQEIVVTQRIQHVGMWHLGKIGRIPGTNFIINTEFVKSIGGWRNGALTEDTDISFKIMQSGKLIALAYNSEAFQQEPETLKSYYLQRKRWAKGNYEVVIANFKHLFGRGNWRVKWEVFYYTCTFFWFNAAIVLSDILFFSNLIALIIGLFKPGVQVPFAFDANNIYMAQLLLFNWFLMILLYLLQISISQATQYGQATVKQIWIALLAYFTYTQLFIIVSISSVASVMMDKILHREGTKWVKTKRFAG', 'protein production', 'failed'),
  ('MTRTMSFHKNCELCTTAGGEILWQDALCRVVHVENQDYPGFCRVILNRHVKEMSDLRPAERDHLMLVVFAVEEAVREVMRPDKINLASLGNMTPHVHWHVIPRFKRDRHFPNSVWGETKRESLPQALDQGSTTALKKAISVRLDQGEPVFMGM', 'protein production', 'not failed');

IN: Name the reported protein production value associated with the sequence MTKKAILLSFLGGFLSLSLEVIWIRLLGFQTFSLPQAFSFTLALFLLGIAFSSFIGKKVCQQGDASINYIGRIFFIAALFDCLAIGLISTTSNSFTNLVYSIFSIFCCALLRGIVFPIVHHLGSEHKKTGAAISNVYFANVLGCTIAPIFIGFYLLDQFTTQQTYLIVISITLIIACFCLTKRVFKAINALFAISVVFATALLPEKMISTLANEEDMQLETLIENKHGIIQVYLDKNQDHLVYGSNVYDGQLNVNLNHNSNGIHRAYLLPAHRK
OUT: failed

IN: Name the reported protein production value associated with the sequence MHQLWTYDPAAGTVEVGAGTTNEGLVDGPGEEAWFAQPSGLAATADRLWLADSETSALRWVDLDGAVHTAVGTGLFDFGHRDGDAEQALLQHPLGVTALPDGSVAVSDTYNHALRRYDPATGEVTTLATDLREPSDAVLVGDDIVVVESARHRLTRLRLPEEAVRVASVAHRTQRAATEVAPGRLQLDVIFQAPAGQKLDTRYGPSTRLLVSSTPPELLLNGEGADPDLSRTLELNPAIPEGVLHVSAMAASCDDDPANEYPACHVHQQDWGVPVRLTEGGADRLPLVLAGMDALEHHHHHH
OUT: failed

* * *

- Assay text: label from the status in PepcDB records
Metric: protein production

INSERT INTO results (sequence_string, metric, assay_value) VALUES
  ('MSFESNQLMPIAALRGGPGTPAADVLTAFALRRKAEGIDVVGVIVPPEDAGSGHQGHGHGEGHGGGHEGCECRSELIDIATGDRYAMHQDLGSGSQACNLNSSSLALAAGAVERAVARKPALVVLSRFGGQEAVRGGLMSAFQAAIAAGVPVACVVTPKAEDVWNDFAQGLSVSLPPEADALEAWWRDHARGRNAALEHHHHHH', 'protein production', 'failed'),
  ('MGVVLIDGSTVRSFVDDEEQFKKSVDERFAALDLNKDGVLSRSELRKAFESMRLLESHFGVDVVTPQDELTNLYDSIFEKFDTDQSGSVDLEEFRSEMKKIVLAIADGLGSCPITMVLDDDDDNFLKKAADLEASKLEKASS', 'protein production', 'failed'),
  ('MSLAEFRAQYLVRFWSPIPALLALGVASAYYFAITGTFWAVTGEFTRWGGHIAALLGFSPQQWSYFQLIGLNGSPLERIDGVMIIGMFAGALCAALWAGNVQLRWPTSRRRLAQGLIGGIIAGFGARLAMGCNLAAFFTGIPMFSLHAWAFMLTTVIGAWIGVKLCLLPFLRTPLRLDTAPSSLFADTASLARRARLQNRLGLLIAVLVLGFAAWRFETSLVLGLAVLFGVFFGAVIERGQICFTSAARDLWTTGRTRIAYGILLGMVVACLGTFGAIALGATPKIFWMGPNAALGGLLFGIGIVLAGGCETGWMYRAMEGQVHFWIVGIGNVIGGTLVAIFWDELGGTLALPYPKINLLEYLGAGTGLLLSLAGLMLAMLLVYLNARRFAVREGLAR', 'protein production', 'failed');

* * *

- Assay text: label from the status in PepcDB records
Metric: protein production

INSERT INTO results (sequence_string, assay_value) VALUES
  ('MSLKRILIVDDDTAILDSTKQILEFEGYEVEIAATAGEGLAKIENEFFNLALFDIKLPDMEGTELLEKAHKLRPGMKKIMVTGYASLENSVFSLNAGADAYIMKPVNPRDLLEKIKEKLDEQEKEGHHHHHH', 'not failed'),
  ('MSGRLRNALHKIRDRGLTPRDLFSYGCIAGHRLLSGAWGTLMLRAKAGCLGITVGKGCECFGTVILSRWPGSRIELGDGVSIISSSRRCTSATIHAPTRLRTFAPTARIILEDGVSLNGTAITARSRTIRIGKGTMVAPNCVITDSDFHAMWPPETRLDTPAFERDADVTIGQHVWLGMRCIVLKGVTIGDGAIVAAGSVVTRDVPPATLVAGVPARVVRHLP', 'failed'),
  ('MIIKPAGDSAFLISFGDEISEEINDRVHSLAKAIEKESPEWLVELVPAYSSLLVIYDPLKASYEEVESYLKRISAREVERIKGKTIEIPVAYGGEFGPDIEFVAQYNGLSVDDVIEIHSKPLYRVYFLGFLPGFAYLGGMDERIATPRLEKPRLKVPAGSVGIAGKQTGWYAIESPGGWRIIGRIPLRTFNPGKVPPSIVLPGDYVKFVPIDEKEFWEIYGREWE', 'not failed'),
  ('MSMECVVQGIIETQHVEALEILLQGLCGVQRERLRVHELCLRSGPNLGVVSSEVRLLCDLDQPEPTWTVKHVGGAMRGAGADQISVLVRNMIESKVSKNALRMFYALGYKLDHELLKVGFAFHFQRTAHISVSVSSVNKMPKVHAIDEAVPVTPGMQIVDVTAPATSENYSEVAAAVSSFCEFLAPLVHLSKPSISTGVVPTAAAAAASLMSDGGGTTL', 'failed'),
  ('MTDPADRPLIERIRACRLCADRFAATHTAHEPRPVVWFRPGARLLIAGQAPGARVHASGRPFTDPSGDRLRDWLGIGEETFYDRSRVAVVPMAFCFPGYNSQGADLPPPPVCGKTWHNQVMGELGEMPLSVLVGGHALKYHLGARSPVTETVAAWRDHAPRVFALPHPSWRNTGWLRKNPWFEAELLPVLRARVKEVLNEPDRSANPD', 'failed'),
  ('DSRQRFKRQMVEQAAPWLLELSARTGLVTDLSSFDGESLEVLESAVPEVLRKRYPSNSRIVGQHASLFHSAMGKACLGALASAEVERLAEQEQVPAEARQQCLESQHLGFGQRTEGHWEYPVRLPFLIRAVALPLQAEGRVIGSIALHWPRDLACVEQVRNRHLWLLAETVERVQKDI', 'failed'),
  ('MKSFDGHNDLLARLWLSEHPDPVGMFLKGQLPGHLDFARCQQAQFAGGLFAIFVPPFDYVKNNHPYKLRKSAQAGFDTQDIHHIVFTQLDYIKQIASRSDRRIQICLSVEDIQFCLQQDIMAVVIHLEGAEVLDSEFGVLEQLHARGLRSIGPLWNLPNQFGHGLQASFPHSPDTGLGLTDQGKALIQLCSEKRIMIDVSHMNEKAFWDTAKISELPLIATHSNVHQLCPQPRNLTDAQLEAIQASQGCVGVNFDTAFLRPDGQRNAATSLDLILEHIEYLMHKLGEDQVAFGSDFDGGFISDHLKDVTGLIHLQQAFERRGYSQALQEKLCHQNWLSALQRVWHPAC', 'failed'),
  ('PGYTLTRELPLTEYRALYRAAEDTWAARLDWSPEQYDAHFAREDVRLLALRDSEGRPVAFAELELCAPDSRAELTHLAVHPAQRGQGLGRALLALAAAEAAQSPEIRTLRARAHDHMSAARQLYARAGLSHCRAVVTSLREG', 'failed');

IN: Name the reported protein production value associated with the sequence MGTIGKKAAKGASVKFSESSTQAVIKATYLQVFGRDVYEGQRLKVQEIKLENGEISVRDFVRALAKSDLFRKLYWTPFYVCKAIEYIHRRLLGRPTYGRQENNKYFDIASKKGLYAVVDAILDSLEYTETFGEDTVPYERYLTPAGLEHHHHHH
OUT: not failed

IN: Name the reported protein production value associated with the sequence MGPTLGPAPLRGKSIPMNRTGRALTLGCLLLLQPLLAHAQAGGNSLLIPALGRCTLDPQAQDQAEALTACQKAADEGDAEAQYELGEFYYEGKGAPQDFNQALSYFEKASLQGHAQAQFKLGTMFFHGEGVPANNVQAYIVLKMAAVNGAEDALDTADEVAEHMQRDELEVATQVLGQIFRKYLMELQSADGRSPFSPLP
OUT: failed

The reported measurements were obtained from a protein production outcome set (Wang et al. 2014).
